# experimental.system: human neuropeptide Y5 receptor (Homo sapiens, UniProt Q15761)
# Construct: expressed in transfected cells; host or cells: HEK-293, stably transfected, G-418 selected; membranes
# procedure.summary: NPY5 HTS centrifugation assay: competition with 125I-PYY for binding to membranes of NPY5-transfected HEK-293 cells
# assay.conditions: 3 μM test compound; inhibition of 125I-PYY binding
Assign 1 (yes) to entries whose % Inh NPY5 @ 3 μM meets or exceeds 10%; assign 0 (no) to the rest.

O=C(Nc1cccc2ccccc12)c1ccc(-c2cc(NS(=O)(=O)c3ccccc3)n(-c3ccccc3)n2)cc1 [Cmpd 11]: 1 (yes)

Q. Is reported % Inh NPY5 @ 3 μM greater than or equal to 10% here: O=C(Nc1ccc(F)cc1)c1ccc(-c2cc(NS(=O)(=O)c3ccccc3)n(-c3ccccc3)n2)cc1 [Cmpd 5]
A. 0 (no)

Q. Next up: Cc1ccc(-n2nc(-c3ccc(NS(=O)(=O)c4cccc5cccnc45)cc3)cc2N)cc1 [Cmpd 43]
A. 1 (yes)

Q. Next up: Cc1ccc(-n2nc(-c3ccc(N(S(=O)(=O)c4cc(C(F)(F)F)cc(C(F)(F)F)c4)S(=O)(=O)c4cc(C(F)(F)F)cc(C(F)(F)F)c4)cc3)cc2N)cc1 [Cmpd 40]
A. 1 (yes)

Q. Next up: COc1ccc(S(=O)(=O)Nc2ccc(-c3cc(N)n(-c4ccc(C(F)(F)F)cn4)n3)cc2)cc1 [Cmpd 85]
A. 1 (yes)

Q. Next up: Cc1ccc(-n2nc(-c3ccc(N(S(=O)(=O)c4ccc(OC(F)(F)F)cc4)S(=O)(=O)c4ccc(OC(F)(F)F)cc4)cc3)cc2N)cc1 [Cmpd 29]
A. 1 (yes)

* * *

Kindly supply the reported % Inh NPY5 @ 3 μM values for the records listed here.
# experimental.system: human neuropeptide Y5 receptor (Homo sapiens, UniProt Q15761)
# Construct: expressed in transfected cells; host or cells: HEK-293, stably transfected, G-418 selected; membranes
# procedure.summary: NPY5 HTS centrifugation assay: competition with 125I-PYY for binding to membranes of NPY5-transfected HEK-293 cells
# assay.conditions: 3 μM test compound; inhibition of 125I-PYY binding
Report as: number unit

Worked cases, answers included:
Cc1ccc(-n2nc(-c3ccc(N(S(=O)(=O)c4ccc5ccccc5c4)S(=O)(=O)c4ccc5ccccc5c4)cc3)cc2N)cc1 [Cmpd 27]: 0.00%
Cc1ccc(NC(=O)c2ccc(-c3cc(N)n(-c4ccc(C)cc4)n3)cc2)cc1 [Cmpd 33]: 0.00%

# ---- query compound ----
Q. Name the recorded % Inh NPY5 @ 3 μM for Cc1ccc(-n2nc(-c3ccc(NS(=O)(=O)c4cccc5c4CCNC5)cc3)cc2N)cc1 [Cmpd 61] .
A. 0.00%

* * *

# experimental.system: human neuropeptide Y5 receptor (Homo sapiens, UniProt Q15761)
# Construct: expressed in transfected cells; host or cells: HEK-293, stably transfected, G-418 selected; membranes
# procedure.summary: NPY5 HTS centrifugation assay: competition with 125I-PYY for binding to membranes of NPY5-transfected HEK-293 cells
# assay.conditions: 3 μM test compound; inhibition of 125I-PYY binding
Kindly supply the reported % Inh NPY5 @ 3 μM values for the records listed here.
One number for each entry, in %.

Worked cases, answers included:
O=C(NCc1ccccc1)c1ccc(-c2cc(NS(=O)(=O)c3ccccc3)n(-c3ccccc3)n2)cc1 [Cmpd 10]: 19.00
Nc1cc(-c2ccc(N(S(=O)(=O)c3ccc(F)cc3)S(=O)(=O)c3ccc(F)cc3)cc2)nn1-c1ccccn1 [Cmpd 59]: 0.00
Cc1ccc(NC(=O)c2ccc(-c3cc(NS(=O)(=O)c4ccc(C)cc4)n(-c4ccc(C)cc4)n3)cc2)cc1 [Cmpd 17]: 6.00
Nc1cc(C(=O)Nc2ccc(Cl)c(Cl)c2)nn1-c1cccc(C(F)(F)F)c1 [Cmpd 78]: 81.00
O=C(O)c1ccc(-c2cc(NS(=O)(=O)c3ccccc3)n(-c3ccccc3)n2)cc1 [Cmpd 9]: 0

List the reported % Inh NPY5 @ 3 μM of each compound below.
1. Cc1ccc(NC(=O)c2ccc(-c3cc(NS(=O)(=O)c4ccccc4)n(-c4ccccc4)n3)cc2)cc1 [Cmpd 6]
2. Cc1ccc(-n2nc(-c3ccc(NS(=O)(=O)c4cc(C(F)(F)F)cc(C(F)(F)F)c4)cc3)cc2N)cc1 [Cmpd 41]
3. Cc1ccc(-n2nc(-c3ccc(N(S(=O)(=O)c4ccc(C(F)(F)F)cc4)S(=O)(=O)c4ccc(C(F)(F)F)cc4)cc3)cc2N)cc1 [Cmpd 46]
4. CC(=O)Nc1ccc(S(=O)(=O)N(c2ccc(-c3cc(N)n(-c4ccc(C)cc4)n3)cc2)S(=O)(=O)c2ccc(NC(C)=O)cc2)cc1 [Cmpd 28]

A.
0.00
10.00
21.00
21.00

* * *

# experimental.system: human neuropeptide Y5 receptor (Homo sapiens, UniProt Q15761)
# Construct: expressed in transfected cells; host or cells: HEK-293, stably transfected, G-418 selected; membranes
# Sequence (Q15761 1-445): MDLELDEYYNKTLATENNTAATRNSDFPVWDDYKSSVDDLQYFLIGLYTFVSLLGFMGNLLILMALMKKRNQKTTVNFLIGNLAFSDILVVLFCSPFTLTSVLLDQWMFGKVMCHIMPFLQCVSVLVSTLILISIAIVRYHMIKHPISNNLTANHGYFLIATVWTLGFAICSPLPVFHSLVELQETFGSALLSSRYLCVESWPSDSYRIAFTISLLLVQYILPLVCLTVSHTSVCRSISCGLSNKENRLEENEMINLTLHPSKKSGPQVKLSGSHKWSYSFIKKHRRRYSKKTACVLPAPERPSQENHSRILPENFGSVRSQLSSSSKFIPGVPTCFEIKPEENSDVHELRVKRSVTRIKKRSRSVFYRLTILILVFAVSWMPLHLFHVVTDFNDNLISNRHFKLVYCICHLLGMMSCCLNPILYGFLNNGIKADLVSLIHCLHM
# procedure.summary: NPY5 HTS centrifugation assay: competition with 125I-PYY for binding to membranes of NPY5-transfected HEK-293 cells
# assay.conditions: 3 μM test compound; inhibition of 125I-PYY binding
# Protocol: NPY5 HTS Centrifugation Assay The compounds described in this invention were evaluated for binding to the human neuropeptide Y5 receptor. […] Compounds to be tested were prepared as 10× stocks in binding buffer and added first to assay tubes (RIA vials, Sarstedt). […] Vials were put in carrier polypropylene 12×75 tube and counted in gamma counter (Packard). Non-specific binding was determined in the presence of 300 nM NPY. […]
quantity.name: % Inh NPY5 @ 3 μM (%)
Answers are plain numbers, in %.

Worked cases, answers included:
Cc1ccc(-n2nc(-c3ccc(C(=O)O)cc3)cc2N)cc1: 0.00
O=C(Nc1ccc2ccccc2c1)c1ccc(-c2cc(NS(=O)(=O)c3ccccc3)n(-c3ccccc3)n2)cc1: 2.00
COc1ccc(S(=O)(=O)Nc2ccc(-c3cc(N)n(-c4cc(C(F)(F)F)cc(C(F)(F)F)c4)n3)cc2)cc1: 48.00
Cc1ccc(-n2nc(-c3ccc(N(S(=O)(=O)c4cccc(C(F)(F)F)c4)S(=O)(=O)c4cccc(C(F)(F)F)c4)cc3)cc2N)cc1: 16.00
COc1ccc(S(=O)(=O)Nc2cccc(-c3cc(N)n(-c4ccc(C)cc4)n3)c2)cc1: 85.00

# ---- query compound ----
Q. Name the recorded % Inh NPY5 @ 3 μM for Nc1cc(-c2ccc(N(S(=O)(=O)c3cccc(C(F)(F)F)c3)S(=O)(=O)c3cccc(C(F)(F)F)c3)cc2)nn1-c1ccccn1 .
A. 0.00
